Data provenance is the supplement of paper PMC7877785.

experimentalProtocol: self-splicing fitness, log relative to wild type (ln ratio); higher = more splicing; Tetrahymena group I intron in knt gene, E. coli kanamycin selection, DiMSum; sequences stand for … in CUCUCU…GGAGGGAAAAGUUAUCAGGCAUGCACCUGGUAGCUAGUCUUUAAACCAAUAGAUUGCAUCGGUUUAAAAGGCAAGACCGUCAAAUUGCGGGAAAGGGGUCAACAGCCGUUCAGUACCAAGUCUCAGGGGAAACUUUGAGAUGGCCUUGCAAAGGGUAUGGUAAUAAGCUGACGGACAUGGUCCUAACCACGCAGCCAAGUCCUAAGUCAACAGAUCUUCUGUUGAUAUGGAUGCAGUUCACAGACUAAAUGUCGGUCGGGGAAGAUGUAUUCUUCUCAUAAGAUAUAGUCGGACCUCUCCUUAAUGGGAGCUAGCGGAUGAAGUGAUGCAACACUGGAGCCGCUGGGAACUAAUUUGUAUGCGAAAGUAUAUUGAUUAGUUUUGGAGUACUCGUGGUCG;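 note: selection with 25 µg/mL kanamycin versus none on LB agar overnight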
testContext: 37 °C
measurementName: self-splicing fitness (ln)

- itemSequence: "AGUUAGCAAUAUUACGGCCU"
  value: 0.22
- itemSequence: "GCGAAGCAAUAUUACGCGGC"
  value: -2.35
- itemSequence: "CUGUAGCAAUAUUACGCUUA"
  value: -3.24
- itemSequence: "AUGAAGCAAUAUUACGUCGC"
  value: -1.28
- itemSequence: "CGGGAGCAAUAUUACGCGCA"
  value: -0.737
- itemSequence: "ACCAAGCAAUAUUACGACAG"
  value: -1.82
- itemSequence: "UUAGAGCAAUAUUACGGUGA"
  value: -0.176
- itemSequence: "AAUUAGCAAUAUUACGGUAA"
  value: -0.655
- itemSequence: "CACCAGCAAUAUUACGAGAU"
  value: -2.42
- itemSequence: "UCUCAGCAAUAUUACGGGUU"
  value: -1.27
- itemSequence: "GGGCAGCAAUAUUACGACGG"
  value: -1.4
- itemSequence: "CCUGAGCAAUAUUACGAACU"
  value: -2.42
- itemSequence: "AGCAAGCAAUAUUACGGAGC"
  value: -1.31
- itemSequence: "UUUAAGCAAUAUUACGGGUG"
  value: -0.234
- itemSequence: "UCUGAGCAAUAUUACGUAUU"
  value: -3.08
- itemSequence: "CAUCAGCAAUAUUACGUUGC"
  value: -2.84
- itemSequence: "UCAUAGCAAUAUUACGAGGG"
  value: -1.83
- itemSequence: "UAAGAGCAAUAUUACGGUUC"
  value: -2.14
- itemSequence: "UACAAGCAAUAUUACGCCCA"
  value: 0.261
- itemSequence: "UGAUAGCAAUAUUACGCCUC"
  value: -1.34
- itemSequence: "GCCGAGCAAUAUUACGUCCU"
  value: -0.795
- itemSequence: "GCCAAGCAAUAUUACGACAU"
  value: -1.37
- itemSequence: "CAAGAGCAAUAUUACGAGGU"
  value: -2.71
- itemSequence: "CCGGAGCAAUAUUACGACUU"
  value: -1.86
- itemSequence: "CCAUAGCAAUAUUACGUGAA"
  value: -2.07
- itemSequence: "CAAGAGCAAUAUUACGACUC"
  value: -1.84
- itemSequence: "GCUGAGCAAUAUUACGCUCG"
  value: -0.729
- itemSequence: "AAAGAGCAAUAUUACGACUA"
  value: -1.12
- itemSequence: "UUUAAGCAAUAUUACGACGC"
  value: -0.476

----------
experimentalProtocol: self-splicing fitness, log relative to wild type (ln ratio); higher = more splicing; Tetrahymena group I intron in knt gene, E. coli kanamycin selection, DiMSum; sequences stand for … in CUCUCU…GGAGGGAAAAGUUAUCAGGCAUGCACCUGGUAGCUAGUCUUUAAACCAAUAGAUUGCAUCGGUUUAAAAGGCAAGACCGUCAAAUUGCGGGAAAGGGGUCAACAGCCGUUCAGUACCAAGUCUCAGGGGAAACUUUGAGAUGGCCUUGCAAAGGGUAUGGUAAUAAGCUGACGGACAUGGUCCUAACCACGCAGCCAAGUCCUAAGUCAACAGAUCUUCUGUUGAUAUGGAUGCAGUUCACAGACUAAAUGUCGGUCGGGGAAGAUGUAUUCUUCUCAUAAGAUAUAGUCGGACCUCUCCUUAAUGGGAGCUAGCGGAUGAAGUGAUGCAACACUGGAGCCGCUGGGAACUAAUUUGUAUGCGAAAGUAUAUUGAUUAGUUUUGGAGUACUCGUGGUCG
testContext: 37 °C

- itemSequence: "UAACAGCAAUAUUACGGGCG"
  self-splicing fitness (ln): 0.217
- itemSequence: "ACGCAGCAAUAUUACGCUAU"
  self-splicing fitness (ln): -0.724
- itemSequence: "CACUAGCAAUAUUACGCGCA"
  self-splicing fitness (ln): -1.85
- itemSequence: "AAGGAGCAAUAUUACGAUAU"
  self-splicing fitness (ln): -2.37
- itemSequence: "GGAAAGCAAUAUUACGGAGG"
  self-splicing fitness (ln): -2.31
- itemSequence: "GAAGAGCAAUAUUACGCUCA"
  self-splicing fitness (ln): -1.33
- itemSequence: "UACUAGCAAUAUUACGUGCA"
  self-splicing fitness (ln): 0.166
- itemSequence: "UUUUAGCAAUAUUACGUGUC"
  self-splicing fitness (ln): -2.26
- itemSequence: "CAGAAGCAAUAUUACGACCG"
  self-splicing fitness (ln): 0.634
- itemSequence: "GAUUAGCAAUAUUACGAACU"
  self-splicing fitness (ln): -0.559
- itemSequence: "AAACAGCAAUAUUACGUUAA"
  self-splicing fitness (ln): -0.816
- itemSequence: "CAUGAGCAAUAUUACGCACU"
  self-splicing fitness (ln): -1.96
- itemSequence: "AGGGAGCAAUAUUACGCCGU"
  self-splicing fitness (ln): -0.233
- itemSequence: "CAUAAGCAAUAUUACGCUGC"
  self-splicing fitness (ln): -3.23
- itemSequence: "CCACAGCAAUAUUACGAGCU"
  self-splicing fitness (ln): -2.4
- itemSequence: "AUCCAGCAAUAUUACGGAAU"
  self-splicing fitness (ln): -1.91
- itemSequence: "GUUGAGCAAUAUUACGCACU"
  self-splicing fitness (ln): -0.723
- itemSequence: "CUGUAGCAAUAUUACGCAAU"
  self-splicing fitness (ln): -1.99
- itemSequence: "UGGCAGCAAUAUUACGCGCG"
  self-splicing fitness (ln): 0.0127
- itemSequence: "CUUAAGCAAUAUUACGAUCG"
  self-splicing fitness (ln): 0.874
- itemSequence: "UACCAGCAAUAUUACGACUA"
  self-splicing fitness (ln): 0.638
- itemSequence: "GCAUAGCAAUAUUACGUAAA"
  self-splicing fitness (ln): -1.05
- itemSequence: "GAAUAGCAAUAUUACGUGUG"
  self-splicing fitness (ln): -1.52
- itemSequence: "ACAGAGCAAUAUUACGGCCA"
  self-splicing fitness (ln): -2.29

----------
experimentalProtocol: self-splicing fitness, log relative to wild type (ln ratio); higher = more splicing; Tetrahymena group I intron in knt gene, E. coli kanamycin selection, DiMSum; sequences stand for … in CUCUCU…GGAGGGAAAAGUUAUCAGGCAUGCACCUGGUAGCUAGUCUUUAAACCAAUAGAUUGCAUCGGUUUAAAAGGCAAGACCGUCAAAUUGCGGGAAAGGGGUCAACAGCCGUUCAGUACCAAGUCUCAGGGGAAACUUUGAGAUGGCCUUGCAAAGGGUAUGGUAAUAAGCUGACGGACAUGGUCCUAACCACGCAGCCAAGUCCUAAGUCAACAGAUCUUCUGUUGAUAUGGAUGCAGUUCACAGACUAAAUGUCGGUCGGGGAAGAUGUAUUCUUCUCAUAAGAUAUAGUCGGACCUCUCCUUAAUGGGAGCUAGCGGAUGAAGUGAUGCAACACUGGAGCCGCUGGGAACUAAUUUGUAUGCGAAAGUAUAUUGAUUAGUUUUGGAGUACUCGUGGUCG
testContext: 37 °C
Please mark condition met if the recorded self-splicing fitness (ln) is equal to or greater than -2, and condition not met if it falls below.

- itemSequence: "GGUAAGCAAUAUUACGUAUG"
  className: "condition not met"
- itemSequence: "CUGAAGCAAUAUUACGAUUG"
  className: "condition met"
- itemSequence: "GGGCAGCAAUAUUACGUGUG"
  className: "condition met"
- itemSequence: "GGUGAGCAAUAUUACGAACG"
  className: "condition met"
- itemSequence: "GCUAAGCAAUAUUACGUACA"
  className: "condition met"
- itemSequence: "GUUAAGCAAUAUUACGCACA"
  className: "condition met"
- itemSequence: "CCCUAGCAAUAUUACGCUAA"
  className: "condition not met"
- itemSequence: "AGCUAGCAAUAUUACGGGCG"
  className: "condition met"
- itemSequence: "GGGAAGCAAUAUUACGGGAC"
  className: "condition not met"
- itemSequence: "ACUUAGCAAUAUUACGGUCC"
  className: "condition met"
- itemSequence: "AGGUAGCAAUAUUACGGGCA"
  className: "condition met"
- itemSequence: "GCCGAGCAAUAUUACGGAUC"
  className: "condition met"
- itemSequence: "UGGGAGCAAUAUUACGUACG"
  className: "condition not met"
- itemSequence: "AGUCAGCAAUAUUACGGGCC"
  className: "condition not met"
- itemSequence: "CAGCAGCAAUAUUACGUUGC"
  className: "condition not met"
- itemSequence: "UGUGAGCAAUAUUACGUCUU"
  className: "condition not met"
- itemSequence: "UUAAAGCAAUAUUACGGCUU"
  className: "condition met"
- itemSequence: "AUGAAGCAAUAUUACGCGGU"
  className: "condition met"
- itemSequence: "CAUCAGCAAUAUUACGCGAG"
  className: "condition met"
